Test system: human PKK mRNA
method_notes: Antisense inhibition of human PKK mRNA in HepaRG cells, 1,000 nM, MOE/deoxy/cEt oligonucleotides (Example 3)
Format: cell-based
measurement_parameters: Table 21 experiment; HepaRG cells, electroporation with 1,000 nM antisense oligonucleotide, approx. 24 hours; PKK mRNA by RT-PCR (RTS3454), relative to untreated control cells
Strand notation (5' to 3'): a small letter for the sugar, then the base; units joined by * are phosphorothioate-linked, units joined directly phosphodiester-linked; [ ] holds rarer units or linkages, { } end groups; capitals alone tell only the bases. e = 2'-O-(2-methoxyethyl) (MOE); k = constrained ethyl (cEt); [5mC] = 5-methylcytosine; d = 2'-deoxy (DNA)
Label met when % inhibition is at or above 40%; anything below gets not met.

Data request: Hi team, for 547832 (eA*e[5mC]*kT*dG*d[5mC]*dA*d[5mC]*d[5mC]*dT*dG*dT*dT*d[5mC]*kG*kA*eT; antisense) [compound 547832] , is the recorded % inhibition at or above 40%?
Data returned: met

Data request: Next record, please: 547786 (antisense eA*eG*kT*dT*dG*d[5mC]*dT*dT*dG*d[5mC]*dT*dT*dG*kA*kA*eT) [compound 547786]
Data returned: met

Data request: Please give the result for 547814 (eG*eG*kG*dT*dG*dG*dA*dA*dT*dG*dT*dG*d[5mC]*kA*k[5mC]*e[5mC]; antisense) [compound 547814] too.
Data returned: met

Data request: How about 547816 (eG*eA*kA*d[5mC]*dT*dT*dG*d[5mC]*dT*dG*dG*dA*dA*kG*kA*eA; antisense) [compound 547816] ?
Data returned: met

Data request: // query: 547840 (antisense eT*eT*kG*d[5mC]*dT*dT*d[5mC]*dA*dA*dG*dG*dA*dA*kT*kG*eT) [compound 547840]
Data returned: not met

Data request: Can you check 547784 (antisense eG*e[5mC]*kT*dT*dG*dA*dA*dT*dA*dA*dA*dA*dT*k[5mC]*kA*eT) [compound 547784] next?
Data returned: met

Data request: What do you get for 547813 (eG*eG*kT*dG*dG*dA*dA*dT*dG*dT*dG*d[5mC]*dA*k[5mC]*k[5mC]*eT; antisense) [compound 547813] ?
Data returned: not met

Data request: Please do the same for 547809 (eT*e[5mC]*kA*dT*d[5mC]*dT*dG*dG*d[5mC]*dA*dG*dT*dA*kT*kT*eG; antisense) [compound 547809] as well.
Data returned: not met

Data request: Item: 547815 (eA*eA*k[5mC]*dT*dT*dG*d[5mC]*dT*dG*dG*dA*dA*dG*kA*kA*eA; antisense) [compound 547815]
Data returned: not met

Data request: // same read-out, input: 547801 (eT*eA*k[5mC]*dA*dT*dG*dG*dA*dA*dG*d[5mC]*dT*dA*k[5mC]*kA*eT; antisense) [compound 547801]
Data returned: not met

Data request: Similarly, 547829 (eA*e[5mC]*k[5mC]*dT*dG*dT*dT*d[5mC]*dG*dA*dT*dG*dT*kA*k[5mC]*eT; antisense) [compound 547829] ?
Data returned: met

Data request: What do we get for 547805 (eG*eG*kG*dT*dG*dT*dA*d[5mC]*dA*dT*dG*dG*dA*kA*kG*e[5mC]; antisense) [compound 547805] ?
Data returned: met

###

Test system: human PKK mRNA
method_notes: Dose-dependent antisense inhibition of human PKK in HepaRG cells, 0.19-5.00 uM (Example 5)
Format: cell-based
measurement_parameters: Table 34; 5.00 μM, HepaRG, electroporation, ~16 h
Strand notation (5' to 3'): a small letter for the sugar, then the base; units joined by * are phosphorothioate-linked, units joined directly phosphodiester-linked; [ ] holds rarer units or linkages, { } end groups; capitals alone tell only the bases. e = 2'-O-(2-methoxyethyl) (MOE); [5mC] = 5-methylcytosine; d = 2'-deoxy (DNA)
assay_endpoint: percent inhibition of PKK at 5.00 μM (%)
Please state the figure in %; there is no need to write the unit.

Data request: # input substance: 546825 (eG*eT*eA*eT*e[5mC]*dA*d[5mC]*dT*dG*dT*dA*d[5mC]*dT*dA*dG*eT*eT*eT*e[5mC]*e[5mC]; antisense) [compound 546825] ; wanted: its percent inhibition of PKK at 5.00 μM
Data returned: 88

Data request: // same read-out, input: 546846 (e[5mC]*eT*eG*eT*e[5mC]*d[5mC]*dT*dA*dT*dA*dT*d[5mC]*dA*d[5mC]*dT*eG*eT*e[5mC]*e[5mC]*eT; antisense) [compound 546846]
Data returned: 82

Data request: Moving on to the next substance: 531231 (eT*eA*eT*e[5mC]*eA*d[5mC]*dT*dG*dT*dA*d[5mC]*dT*dA*dG*dT*eT*eT*e[5mC]*e[5mC]*eT) [compound 531231]
Data returned: 89

Data request: Repeat with 546827 (e[5mC]*eA*eG*eT*eA*dT*d[5mC]*dA*d[5mC]*dT*dG*dT*dA*d[5mC]*dT*eA*eG*eT*eT*eT; antisense) [compound 546827]
Data returned: 90

###

System: human PKK mRNA
method_notes: Dose-dependent antisense inhibition of human PKK in HepaRG cells, 0.11-3.00 uM (Example 6)
Type: cell-based
measurement_parameters: electroporation, 3.00 μM, approx. 16 hours, relative to untreated control cells
Strand notation (5' to 3'): a small letter for the sugar, then the base; units joined by * are phosphorothioate-linked, units joined directly phosphodiester-linked; [ ] holds rarer units or linkages, { } end groups; capitals alone tell only the bases. e = 2'-O-(2-methoxyethyl) (MOE); k = constrained ethyl (cEt); [5mC] = 5-methylcytosine; d = 2'-deoxy (DNA)
For each record, write down the corresponding percent inhibition of PKK mRNA, 3.00 μM.
Value expressed in %; do not type the unit.

Data request: Can you share its percent inhibition of PKK mRNA, 3.00 μM? I mean this substance: 548180 (eT*e[5mC]*kA*dT*dG*dG*dA*dG*dA*dT*d[5mC]*dT*d[5mC]*kA*kG*eT; antisense) [compound 548180]
Data returned: 88

Data request: Field entry: 548409 (antisense eG*eT*kA*dT*d[5mC]*dA*d[5mC]*dT*dG*dT*dA*d[5mC]*dT*kA*kG*eT) [compound 548409]
Data returned: 93

Data request: Moving on to 547943 (eT*eG*kG*dT*dG*dT*dG*d[5mC]*d[5mC]*dA*d[5mC]*dT*dT*kT*k[5mC]*eA; antisense) [compound 547943]
Data returned: 90

Data request: Record: 547807 (eG*e[5mC]*kA*dG*dT*dA*dT*dT*dG*dG*dG*d[5mC]*dA*kT*kT*eT; antisense) [compound 547807]
Data returned: 94

Data request: Field entry: 548265 (antisense e[5mC]*e[5mC]*kT*d[5mC]*dT*dT*dG*dA*dT*dT*dT*dG*dG*kG*k[5mC]*eA) [compound 548265]
Data returned: 67

Data request: Same question, 547947 (eG*eG*kA*dA*d[5mC]*dT*dT*dG*dG*dT*dG*dT*dG*k[5mC]*k[5mC]*eA; antisense) [compound 547947] this time
Data returned: 93

Data request: Next substance up: 548046 (eT*eA*kT*d[5mC]*dA*dT*dG*dA*dT*dT*d[5mC]*d[5mC]*d[5mC]*kT*kT*e[5mC]; antisense) [compound 548046]
Data returned: 77

Data request: Now this one: 548109 (antisense eG*e[5mC]*kA*dT*d[5mC]*dT*dG*dA*dG*d[5mC]*dT*dT*dT*kT*k[5mC]*e[5mC]) [compound 548109]
Data returned: 85

Data request: 548348 (antisense eT*eG*kA*dG*dT*dG*dA*dT*dG*d[5mC]*d[5mC]*dT*dT*k[5mC]*k[5mC]*eA) [compound 548348] , same question.
Data returned: 91

Data request: Same lookup for 548047 (eG*eA*kT*dA*dT*d[5mC]*dA*dT*dG*dA*dT*dT*d[5mC]*k[5mC]*k[5mC]*eT; antisense) [compound 548047] , please.
Data returned: 95

Data request: Also check 547857 (antisense e[5mC]*eT*k[5mC]*dA*dT*dA*dT*d[5mC]*dA*dA*d[5mC]*dT*d[5mC]*k[5mC]*kT*eT) [compound 547857]
Data returned: 93

Data request: Query 548195 (eT*eT*k[5mC]*dT*dG*d[5mC]*d[5mC]*dA*dA*d[5mC]*dA*dG*dT*kT*kT*e[5mC]; antisense) [compound 548195] next
Data returned: 76

###

Tested on: human PKK mRNA
method_notes: Antisense inhibition of human PKK mRNA in HepaRG cells, 1,000 nM, MOE/deoxy/cEt oligonucleotides (Example 3)
Type: cell-based
measurement_parameters: HepaRG cells, electroporation with 1,000 nM antisense oligonucleotide, approximately 24 hours, primer probe set RTS3454, relative to untreated control cells; experiment of Table 23
Strand notation (5' to 3'): a small letter for the sugar, then the base; units joined by * are phosphorothioate-linked, units joined directly phosphodiester-linked; [ ] holds rarer units or linkages, { } end groups; capitals alone tell only the bases. e = 2'-O-(2-methoxyethyl) (MOE); k = constrained ethyl (cEt); [5mC] = 5-methylcytosine; d = 2'-deoxy (DNA)
assay_endpoint: % inhibition (%)
Enter your answer as a number in %; do not include the unit.

Data request: # get_value(readout= % inhibition, system= human PKK mRNA) for 547993 (antisense eT*eA*kG*dA*dT*dA*dA*dT*d[5mC]*dT*dT*dA*dA*kG*kA*eA) [compound 547993]
Data returned: 26

Data request: Try the substance 547928 (eG*eA*kT*dG*dG*dT*d[5mC]*d[5mC]*dG*dA*d[5mC]*dA*d[5mC]*kA*k[5mC]*eA; antisense) [compound 547928]
Data returned: 70

Data request: Thanks! And 547925 (eG*eG*kT*d[5mC]*d[5mC]*dG*dA*d[5mC]*dA*d[5mC]*dA*d[5mC]*dA*kA*kA*eA; antisense) [compound 547925] ?
Data returned: 16

Data request: For 547979 (antisense eG*eT*k[5mC]*dT*d[5mC]*dT*dT*dG*dG*d[5mC]*dA*dA*dA*k[5mC]*kA*eT) [compound 547979] then?
Data returned: 77

Data request: Then this substance: 547953 (e[5mC]*eT*kA*dT*dA*dT*d[5mC]*d[5mC]*dA*dG*dA*dT*dA*kT*kG*eG; antisense) [compound 547953]
Data returned: 16

Data request: Field entry: 547960 (eT*eG*k[5mC]*dA*dG*dG*dT*dT*dA*dA*dA*dA*dG*kG*k[5mC]*eT; antisense) [compound 547960]
Data returned: 40
